Test system: Pansy plants
Assay: Pansy yellow leaf number (leaf yellowing)
Format: in vivo
Settings: 0.3 mg; Matrix Orange; drought; 3 d after treatment; Table 2
REPORTED_ENDPOINT: Yellow leaf number

MOLECULE	OBS_VALUE
COC(=O)C=C(C)C#CC1(O)c2ccccc2C(=O)CC1(C)C (mixture of isomers)	10.8
COC(=O)C=C(C)C=CC1(O)c2ccccc2C(=O)CC1(C)C (mixture of isomers)	9.2
C#CC1(C)CC(=O)C=C(C)C1(O)C=CC(C)=CC(=O)O (centres unmarked)	11.0
C#CC1(C)CC(=O)C=C(C)C1(O)/C=C/C(C)=C\C(=O)OC (centres unmarked)	9.0
COC(=O)C=C(C)C=CC1(O)C(C)=CC(=O)CC1(C)C1CC1 (centres unmarked)	9.0
